- experimentSummary: recombinant UMI read abundance after kanamycin selection (control-corrected) (log10(CPM+1)); higher = more efficient recombination; extreme values may be limits of the assay; sequences stand for … in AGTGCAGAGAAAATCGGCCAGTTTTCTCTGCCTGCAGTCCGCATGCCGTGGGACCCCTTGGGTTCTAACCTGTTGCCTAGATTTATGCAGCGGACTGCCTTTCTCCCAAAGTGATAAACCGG…AGGTTGGTTTCACT; site = the 11-nt donor;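 also: IS621 bridge recombinase in Escherichia coli cells against a fixed T5 target plasmid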
quantityMeasured: recombinant UMI read abundance (log10)

INSERT INTO assay_data (polymersequence, testresult) VALUES
  ('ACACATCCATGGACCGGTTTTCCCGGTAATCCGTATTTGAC (site ACACATCCTAT)', 0.0886),
  ('GGTAGAACATGGACCGGTTTTCCCGGTAATCCGTATTTGGC (site GTTAGAACTGC)', 0),
  ('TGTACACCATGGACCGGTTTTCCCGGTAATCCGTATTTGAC (site TGTACGCCTGT)', 0),
  ('CAATGCCCATGGACCGGTTTTCCCGGTAATCCGTATTTGAA (site CAATGCGCTTT)', 0.00922),
  ('TCAGACACATGGACCGGTTTTCCCGGTAATCCGTATTTGCG (site TCAGATACTCG)', 0.946),
  ('ACTTGCCCATGGACCGGTTTTCCCGGTAATCCGTATTTGAT (site TCTTGCCCTAT)', 0.0192),
  ('TGCTCAGCATGGACCGGTTTTCCCGGTAATCCGTATTTGGG (site GGCTCAGCTCC)', 0.0391),
  ('ACAGTATCATGGACCGGTTTTCCCGGTAATCCGTATTTGAC (site CTAGTATCTGT)', 1.64),
  ('CACTCCCCATGGACCGGTTTTCCCGGTAATCCGTATTTGCC (site CACTCCGCTGG)', 0);
